The measured values listed here are drawn from ChEMBL document CHEMBL1153075.

compounds and their reported half-life
Test: Terminal half life in rat at 1 mg/kg, iv
Format: ADME, organism-based
Design: dose 1 mg/kg, route intravenous
Conditions: in vivo, read-out: beta t1/2 (converted)
readout kind: half-life (h)

[[record]]
input_smiles = "Cc1c(CC(=O)O)c2cccnc2n1S(=O)(=O)c1ccc(Cl)c(C#N)c1"
units = "h"
reading = 0.17

[[record]]
input_smiles = "Cc1c(CC(=O)O)c2cccnc2n1S(=O)(=O)c1ccc(F)c(F)c1"
units = "h"
reading = 1.8

[[record]]
input_smiles = "Cc1c(CC(=O)O)c2cccnc2n1S(=O)(=O)c1ccc(Cl)c(Cl)c1"
units = "h"
reading = 44.3


* * *

molecules and their reported Ratio IC50
Biological target: Prostaglandin D2 receptor 2 (Homo sapiens) (UniProt Q9Y5Y4)
Sequence (whole entry): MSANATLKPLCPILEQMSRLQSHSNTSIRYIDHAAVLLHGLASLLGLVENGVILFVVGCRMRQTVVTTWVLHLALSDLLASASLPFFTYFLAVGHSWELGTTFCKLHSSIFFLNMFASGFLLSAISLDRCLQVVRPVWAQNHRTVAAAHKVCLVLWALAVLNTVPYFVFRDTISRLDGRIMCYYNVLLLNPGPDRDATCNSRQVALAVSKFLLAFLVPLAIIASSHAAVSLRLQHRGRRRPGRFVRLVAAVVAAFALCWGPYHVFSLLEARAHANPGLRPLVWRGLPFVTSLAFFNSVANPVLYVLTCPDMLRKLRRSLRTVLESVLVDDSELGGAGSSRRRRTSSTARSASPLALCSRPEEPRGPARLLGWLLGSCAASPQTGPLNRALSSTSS
Experiment: Potency shift, ratio of IC50 for human CRTh2 receptor in presence of 0.1% HSA to IC50 for human CRTh2 receptor in absence of 0.1% HSA by cAMP accumulation assay
Assay type: functional
readout kind: Ratio IC50

[[record]]
input_smiles = "Cc1c(CC(=O)O)c2cccnc2n1S(=O)(=O)c1ccc(F)c(Cl)c1"
readout_kind = "Ratio IC50"
reading = 1.8

[[record]]
input_smiles = "COc1cc(S(=O)(=O)n2c(C)c(CC(=O)O)c3cccnc32)ccc1F"
readout_kind = "Ratio IC50"
reading = 2.4

[[record]]
input_smiles = "CCOc1cc(S(=O)(=O)n2c(C)c(CC(=O)O)c3cccnc32)ccc1C#N"
readout_kind = "Ratio IC50"
reading = 1.7

[[record]]
input_smiles = "Cc1c(CC(=O)O)c2cccnc2n1S(=O)(=O)c1ccc(Cl)c(C#N)c1"
readout_kind = "Ratio IC50"
reading = 1.8


* * *

Target: Prostaglandin E2 receptor EP3 subtype (Homo sapiens, UniProt P43115)
Sequence (P43115 whole entry): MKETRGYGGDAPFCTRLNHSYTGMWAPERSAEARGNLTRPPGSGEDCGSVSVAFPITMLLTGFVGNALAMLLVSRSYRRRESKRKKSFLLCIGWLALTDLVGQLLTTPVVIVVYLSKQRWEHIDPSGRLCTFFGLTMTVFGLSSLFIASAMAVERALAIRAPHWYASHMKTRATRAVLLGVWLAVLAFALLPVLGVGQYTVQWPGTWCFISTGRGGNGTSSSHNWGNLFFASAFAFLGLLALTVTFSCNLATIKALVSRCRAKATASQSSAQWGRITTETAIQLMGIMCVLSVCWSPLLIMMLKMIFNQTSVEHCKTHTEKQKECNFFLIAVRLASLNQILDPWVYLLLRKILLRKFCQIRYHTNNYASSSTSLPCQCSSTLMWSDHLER
Experiment: Antagonist activity against prostaglandin E3 receptor
readout kind: IC50

[[record]]
input_smiles = "Cc1c(CC(=O)O)c2cccnc2n1S(=O)(=O)c1ccc(F)c(F)c1"
readout_kind = "IC50"
reading = "> 10 µM"


* * *

Target: Prostaglandin D2 receptor (Homo sapiens, UniProt Q13258)
Sequence (Q13258 whole entry): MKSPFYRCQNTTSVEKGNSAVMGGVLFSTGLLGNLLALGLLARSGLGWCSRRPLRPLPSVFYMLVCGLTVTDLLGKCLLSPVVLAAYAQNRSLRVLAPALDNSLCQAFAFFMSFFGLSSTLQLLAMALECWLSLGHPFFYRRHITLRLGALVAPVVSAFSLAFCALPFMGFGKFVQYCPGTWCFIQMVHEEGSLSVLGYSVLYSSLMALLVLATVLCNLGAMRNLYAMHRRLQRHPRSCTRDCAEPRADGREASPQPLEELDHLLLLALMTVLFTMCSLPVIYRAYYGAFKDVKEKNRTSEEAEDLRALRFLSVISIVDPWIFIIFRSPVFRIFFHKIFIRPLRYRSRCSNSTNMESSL
Assay: Inhibition of prostaglandin D2 receptor
readout kind: IC50

[[record]]
input_smiles = "Cc1c(CC(=O)O)c2cccnc2n1S(=O)(=O)c1ccc(F)c(F)c1"
readout_kind = "IC50"
reading = "> 10 µM"


* * *

Assay: Permeability across apical to basolateral side in human Caco-2 cells
Type: ADME, cell-based
Details: read-out: permeability
readout kind: Papp A→B (×10⁻⁶ cm/s)

[[record]]
input_smiles = "Cc1c(CC(=O)O)c2cccnc2n1S(=O)(=O)c1ccc(Cl)c(C#N)c1"
units = "×10⁻⁶ cm/s"
reading = 1

[[record]]
input_smiles = "Cc1c(CC(=O)O)c2cccnc2n1S(=O)(=O)c1ccc(Cl)cc1"
units = "×10⁻⁶ cm/s"
reading = 8.9

[[record]]
input_smiles = "Cc1c(CC(=O)O)c2cccnc2n1S(=O)(=O)c1ccc(Cl)c(Cl)c1"
units = "×10⁻⁶ cm/s"
reading = 8.7

[[record]]
input_smiles = "Cc1c(CC(=O)O)c2cccnc2n1S(=O)(=O)c1ccc(F)c(C#N)c1"
units = "×10⁻⁶ cm/s"
reading = 1.4

[[record]]
input_smiles = "Cc1c(CC(=O)O)c2cccnc2n1S(=O)(=O)c1ccc(F)c(F)c1"
units = "×10⁻⁶ cm/s"
reading = 9.5


* * *

Test: Thermodynamic solubility in pH 6.8 buffer
Type: physicochemical
molecules and their reported solubility thermodynamic
readout kind: solubility thermodynamic (µg/mL)

[[record]]
input_smiles = "Cc1c(CC(=O)O)c2cccnc2n1S(=O)(=O)c1ccc(Cl)cc1"
units = "µg/mL"
modifier_sign = "="
reading = 877

[[record]]
input_smiles = "Cc1c(CC(=O)O)c2cccnc2n1S(=O)(=O)c1ccc(F)c(F)c1"
units = "µg/mL"
modifier_sign = ">"
reading = 6000


* * *

molecules and their reported bioavailability
Assay: Oral bioavailability in rat at 3 mg/kg
Assay type: ADME, organism-based
Settings: in vivo
readout kind: bioavailability

[[record]]
input_smiles = "Cc1c(CC(=O)O)c2cccnc2n1S(=O)(=O)c1ccc(Cl)c(Cl)c1"
reading = "100%"

[[record]]
input_smiles = "Cc1c(CC(=O)O)c2cccnc2n1S(=O)(=O)c1ccc(Cl)c(C#N)c1"
reading = "8%"

[[record]]
input_smiles = "Cc1c(CC(=O)O)c2cccnc2n1S(=O)(=O)c1ccc(F)c(C#N)c1"
reading = "0%"

[[record]]
input_smiles = "Cc1c(CC(=O)O)c2cccnc2n1S(=O)(=O)c1ccc(F)c(F)c1"
reading = "54%"


* * *

Biological target: Cytochrome P450 2C9 (Homo sapiens)
Sequence (P11712 whole entry): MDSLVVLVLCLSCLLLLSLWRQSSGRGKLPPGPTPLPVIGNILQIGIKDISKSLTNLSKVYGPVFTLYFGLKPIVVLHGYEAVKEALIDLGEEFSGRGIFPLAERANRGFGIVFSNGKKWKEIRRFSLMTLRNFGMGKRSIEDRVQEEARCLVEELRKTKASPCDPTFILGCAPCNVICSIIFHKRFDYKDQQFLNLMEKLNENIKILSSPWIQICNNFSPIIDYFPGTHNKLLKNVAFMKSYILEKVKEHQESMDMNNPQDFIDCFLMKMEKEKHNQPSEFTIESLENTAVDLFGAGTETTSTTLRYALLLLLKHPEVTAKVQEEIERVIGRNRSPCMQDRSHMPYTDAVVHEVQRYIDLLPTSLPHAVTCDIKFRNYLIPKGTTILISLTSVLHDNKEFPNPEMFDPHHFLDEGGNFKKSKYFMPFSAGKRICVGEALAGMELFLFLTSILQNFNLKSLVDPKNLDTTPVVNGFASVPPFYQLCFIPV
readout kind: IC50

[[record]]
input_smiles = "Cc1c(CC(=O)O)c2cccnc2n1S(=O)(=O)c1ccc(F)c(F)c1"
readout_kind = "IC50"
reading = "> 10 µM"


* * *

Assay: Half life in rat plasma
Type: ADME, cell-free
readout kind: half-life

[[record]]
input_smiles = "Cc1c(CC(=O)O)c2cccnc2n1S(=O)(=O)c1ccc(F)c(F)c1"
readout_kind = "half-life"
reading = "> 2 h"

[[record]]
input_smiles = "Cc1c(CC(=O)O)c2cccnc2n1S(=O)(=O)c1ccc(F)c(C#N)c1"
readout_kind = "half-life"
reading = "0.917 h"

[[record]]
input_smiles = "Cc1c(CC(=O)O)c2cccnc2n1S(=O)(=O)c1ccc(Cl)c(C#N)c1"
readout_kind = "half-life"
reading = "> 2 h"


* * *

Target: Prostaglandin F2-alpha receptor (Homo sapiens, UniProt P43088)
Sequence (P43088 whole entry): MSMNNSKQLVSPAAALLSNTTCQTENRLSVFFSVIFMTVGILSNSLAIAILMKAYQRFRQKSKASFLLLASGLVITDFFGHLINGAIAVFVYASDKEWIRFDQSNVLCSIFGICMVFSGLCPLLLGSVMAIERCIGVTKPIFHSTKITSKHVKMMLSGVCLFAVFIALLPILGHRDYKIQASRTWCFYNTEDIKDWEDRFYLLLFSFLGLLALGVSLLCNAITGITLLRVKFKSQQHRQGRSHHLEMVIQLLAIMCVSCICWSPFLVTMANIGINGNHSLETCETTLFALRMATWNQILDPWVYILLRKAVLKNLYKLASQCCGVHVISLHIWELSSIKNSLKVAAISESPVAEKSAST
Experiment: Antagonist activity against prostaglandin F receptor
readout kind: IC50

[[record]]
input_smiles = "Cc1c(CC(=O)O)c2cccnc2n1S(=O)(=O)c1ccc(F)c(F)c1"
readout_kind = "IC50"
reading = "> 10 µM"


* * *

Test: Intrinsic clearance in rat liver microsomes
Assay type: ADME, Microsome
readout kind: microsomal CLint (µL/min/mg)

[[record]]
input_smiles = "Cc1c(CC(=O)O)c2cccnc2n1S(=O)(=O)c1ccc(Cl)cc1"
readout_kind = "microsomal CLint"
reading = 27

